Attribution: the Human Domainome abundance scans (Beltran et al. 2025)

B1: POU domain, class 4, transcription factor 2, residues 256 to 327; numbered along this chain, Q12837 (parent)
chain: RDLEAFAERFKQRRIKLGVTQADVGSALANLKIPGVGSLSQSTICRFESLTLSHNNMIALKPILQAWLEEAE

# Variants of: B1
# protocol-summary: abundance fitness (aPCA) (normalised: wild type 0, dead -1); higher = more abundant; growth selection in yeast, the domain comes from the species named
# condition-info: Homo sapiens
reported-property: abundance fitness
Write no unit; give the number alone.

mutation-list: Q65F
abundance fitness: -0.369
//
mutation-list: A66I
abundance fitness: -0.187
//
mutation-list: G25Q
abundance fitness: -0.207

E48L yielded abundance fitness of -0.93

The reported value for L50P in terms of abundance fitness is -0.867

Measured abundance fitness of L52K : -0.163

Note to self: abundance fitness recorded for S40R was -0.312
